Taken from paper PMC11171218.

# target_entity: UniProt:Q9Y463
# Sequence (Q9Y463 whole entry): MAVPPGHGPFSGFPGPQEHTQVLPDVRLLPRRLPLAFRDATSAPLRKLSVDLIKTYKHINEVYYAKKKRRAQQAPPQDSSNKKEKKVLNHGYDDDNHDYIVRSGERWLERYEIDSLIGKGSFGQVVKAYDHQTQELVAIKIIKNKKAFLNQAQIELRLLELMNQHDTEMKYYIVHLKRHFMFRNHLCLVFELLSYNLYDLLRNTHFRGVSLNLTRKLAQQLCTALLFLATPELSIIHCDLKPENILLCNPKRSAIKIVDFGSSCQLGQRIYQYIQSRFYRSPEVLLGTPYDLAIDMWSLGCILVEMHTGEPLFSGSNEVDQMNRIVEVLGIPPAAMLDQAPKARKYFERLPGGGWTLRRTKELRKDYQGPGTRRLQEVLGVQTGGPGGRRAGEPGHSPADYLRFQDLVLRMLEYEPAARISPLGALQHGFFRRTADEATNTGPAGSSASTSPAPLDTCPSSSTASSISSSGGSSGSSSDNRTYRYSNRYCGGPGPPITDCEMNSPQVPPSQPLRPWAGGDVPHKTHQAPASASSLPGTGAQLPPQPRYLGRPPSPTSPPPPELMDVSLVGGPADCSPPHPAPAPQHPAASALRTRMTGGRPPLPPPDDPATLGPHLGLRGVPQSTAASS
# protocol_description: Z'-LYTE kinase inhibition assay, Dyrk1B
# Type: biochemical
# experimental_parameters: read-out: Dyrk1B % Inh. At 1 µM
# Excerpt: 3. Experimental procedure for protein kinases and inhibition assays. 3.1 The Z ́ -LYTE biochemical assay for screening and IC 50 determination for Clk1, Dyrk1A, Dyrk1B, Clk2 and Clk3 kinases. The assay employs a fluorescence-based, coupled-enzyme format and is based on the differential sensitivity of phosphorylated and non-phosphorylated peptides to proteolytic cleavage. […] Both cleaved and uncleaved FRET-peptides contribute to the fluorescence signals and therefore to the Emission Ratio. […]
// values below are reported inhibition at 1 µM
Please answer in the form of a number followed by its unit of measurement.

Known inhibition at 1 µM results, listed for orientation:
O=C(NCc1cccc(F)c1F)c1cc2cc(O)ccc2s1 [Compound 15]; 61%
O=C(NCc1ccccc1)c1cc2cc(O)ccc2s1 [Compound 1]; 60%
Cc1cccc(CNC(=O)c2cc3cc(O)ccc3s2)c1 [Compound 9]; 40%

Then this compound:
# inhibition at 1 µM of O=C(NCc1ccc(F)cc1F)c1cc2cc(O)ccc2s1 [Compound 16] = 53%
